meta.source: patent US20220025021A1

target: HIV-1 Env of pseudovirus SC422661.8 (HIV-1); assay: cell-based or functional assay
Give measured neutralization IC50 for each item. Keep answers brief.
Use µg/mL as the unit, but write only the number.

[Q] Fill blank: measured neutralization IC50 of the binder MS-72 (antibody, V domains shown) VH: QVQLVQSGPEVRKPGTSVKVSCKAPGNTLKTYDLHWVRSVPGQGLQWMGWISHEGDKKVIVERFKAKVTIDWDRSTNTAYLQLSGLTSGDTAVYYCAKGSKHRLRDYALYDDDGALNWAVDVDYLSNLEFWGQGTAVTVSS VL: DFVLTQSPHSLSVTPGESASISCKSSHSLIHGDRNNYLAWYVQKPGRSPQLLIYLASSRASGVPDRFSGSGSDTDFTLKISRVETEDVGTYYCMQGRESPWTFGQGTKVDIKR is ____.
[A] 0.373

[Q] Fill blank: measured neutralization IC50 of the binder MS-85 (antibody, V domains shown) VH: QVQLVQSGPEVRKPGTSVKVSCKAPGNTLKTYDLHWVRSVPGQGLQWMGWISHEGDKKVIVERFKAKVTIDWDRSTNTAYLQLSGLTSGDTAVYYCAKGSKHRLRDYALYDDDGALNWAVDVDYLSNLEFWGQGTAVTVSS VL: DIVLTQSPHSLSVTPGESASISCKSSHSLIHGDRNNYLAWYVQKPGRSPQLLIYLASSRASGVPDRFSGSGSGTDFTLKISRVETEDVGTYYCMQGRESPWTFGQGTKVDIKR is ____.
[A] 0.54
